# Test system: CAKI-1 renal
# protocol.notes: NCI tumour cell line growth inhibition, 48 h
Measured TGI, listed per entry for reference.
measured.endpoint: TGI

> print(dat)
                                    compound  result.value
 1  NS(=O)(=O)c1cc(Br)c(N=Nc2ccc(O)c3ncccc23)c(Br)c1      > 100 µM
 2  COc1cccc2c(=O)oc(-c3ccc(C(C)(C)C)cc3)nc12      > 100 µM
 3  CC1=C[C@@H]2Cc3nc4cc(Cl)ccc4c(N)c3[C@H](C1)C2       17.4 µM
 4  O=C1c2ccccc2-c2c1c(-c1ccc(F)cc1)nc1ccc3ccccc3c21      > 100 µM
 5  CC(C)C(C)/C=C\C(C)C1CCC2C3=CC=C4CC(O)CCC4(C)C3CCC21C (centres undefined)     > 60.4 µM
 6   Cc1cc2c3c(nc4ccccc42)C(=O)c2ccccc2-c3n1       60.7 µM
 7  CC1=NN(c2cccc(Cl)c2)C2(SCC(=O)N2c2nc3ccccc3s2)/C1=C\c1ccccc1O (centres undefined)       57.5 µM
 8                 CCOC(=O)CC(=O)ON(C)C(C)=O      > 100 µM
 9  CCCCC(C(=O)NCCNC(=O)CCC(=O)N(C)O)C(=O)NCCNC(=O)CCC(=O)N(C)O      > 100 µM
10  CCCC(=O)OC1CC(n2cc(F)c(=O)[nH]c2=O)OC1COP(=O)(OCC(Cl)(Cl)Cl)OCC(Cl)(Cl)Cl (centres undefined)     > 31.6 µM
11  CCCCCCN(CCCCCC)C(=O)Cc1c2n(c3ccccc13)Cc1ccccc1-2      > 100 µM
12           ClCc1cccc(Cn2cnc3ncnc(Cl)c32)c1       4.04 µM
13  COc1cc(C2c3cc4c(cc3OC(C)(O)C2C)OCO4)cc(OC)c1OC (centres undefined)      > 100 µM
14  Cc1ccccc1S(=O)(=O)OC1NS(=O)(=O)c2ccccc21 (centres undefined)      > 100 µM
15  COc1ccc(NC(=O)CC(=O)N2N=C(N3c4ccccc4Sc4ccccc43)CC2c2ccccc2)cc1 (centres undefined)      > 100 µM
16  COC(=O)C1=C(C)NC(C)=C(C(=O)OCCCN2CCC(c3ccccc3)(c3ccccc3)CC2)C1c1cccc([N+](=O)[O-])c1 (centres undefined)       11.8 µM
17  COc1cccc(-c2nc(-c3ccc(NC(=O)C(C)C)cc3)[nH]c2-c2ccnc(Br)c2)c1      > 100 µM
18   CN1CSC(=S)N(c2c3ccccc3nc3ccc(Br)cc23)C1         24 µM
19  Cc1c(S(=O)(=O)c2ccccc2)c(N)n(CCN(C)C)c1C      > 100 µM

----------
Measured TGI, listed per entry for reference.
# System: DU-145 prostate
# protocol.notes: NCI tumour cell line growth inhibition, 48 h
measured.endpoint: TGI (µM)

> print(dat)
                                   molecule  measured.endpoint  censoring.operator  result.value
1  CC1=NN(c2cccc(Cl)c2)C2(C1=C/C=C/c1ccccc1)C(Cl)C(=O)N2c1nc2ccccc2s1 (stereo not given)                TGI                   >          38.2
2  COc1ccc(-c2nc(SCC(=O)N/N=C/c3ccc(N(C)C)cc3)[nH]c2-c2ccc(OC)cc2)cc1                TGI                   >           100
3  CCCCC(C(=O)NCCNC(=O)CCC(=O)N(C)O)C(=O)NCCNC(=O)CCC(=O)N(C)O                TGI                   >           100
4  CC(C)[C@H]1COC(=O)N1[C@@H]1C(=O)N([C@@H](CCC(=O)N2CCN(C3CCCC3)CC2)C(=O)N[C@@H]2CCCc3ccccc32)[C@@H]1/C=C/c1cccc(Br)c1                TGI                   =          7.57
5  CCN(CC)/C(SCc1ccccc1)=C(\C(Cl)=C(Cl)Cl)[N+](=O)[O-]                TGI                   =          39.2
